Where do the numbers come from? From patent US20260125346A1.

Measured on: PI3Kα (p110/p85) kinase (wild type, "WT") (Homo sapiens, UniProt P42336)
Sequence (P42336 whole entry): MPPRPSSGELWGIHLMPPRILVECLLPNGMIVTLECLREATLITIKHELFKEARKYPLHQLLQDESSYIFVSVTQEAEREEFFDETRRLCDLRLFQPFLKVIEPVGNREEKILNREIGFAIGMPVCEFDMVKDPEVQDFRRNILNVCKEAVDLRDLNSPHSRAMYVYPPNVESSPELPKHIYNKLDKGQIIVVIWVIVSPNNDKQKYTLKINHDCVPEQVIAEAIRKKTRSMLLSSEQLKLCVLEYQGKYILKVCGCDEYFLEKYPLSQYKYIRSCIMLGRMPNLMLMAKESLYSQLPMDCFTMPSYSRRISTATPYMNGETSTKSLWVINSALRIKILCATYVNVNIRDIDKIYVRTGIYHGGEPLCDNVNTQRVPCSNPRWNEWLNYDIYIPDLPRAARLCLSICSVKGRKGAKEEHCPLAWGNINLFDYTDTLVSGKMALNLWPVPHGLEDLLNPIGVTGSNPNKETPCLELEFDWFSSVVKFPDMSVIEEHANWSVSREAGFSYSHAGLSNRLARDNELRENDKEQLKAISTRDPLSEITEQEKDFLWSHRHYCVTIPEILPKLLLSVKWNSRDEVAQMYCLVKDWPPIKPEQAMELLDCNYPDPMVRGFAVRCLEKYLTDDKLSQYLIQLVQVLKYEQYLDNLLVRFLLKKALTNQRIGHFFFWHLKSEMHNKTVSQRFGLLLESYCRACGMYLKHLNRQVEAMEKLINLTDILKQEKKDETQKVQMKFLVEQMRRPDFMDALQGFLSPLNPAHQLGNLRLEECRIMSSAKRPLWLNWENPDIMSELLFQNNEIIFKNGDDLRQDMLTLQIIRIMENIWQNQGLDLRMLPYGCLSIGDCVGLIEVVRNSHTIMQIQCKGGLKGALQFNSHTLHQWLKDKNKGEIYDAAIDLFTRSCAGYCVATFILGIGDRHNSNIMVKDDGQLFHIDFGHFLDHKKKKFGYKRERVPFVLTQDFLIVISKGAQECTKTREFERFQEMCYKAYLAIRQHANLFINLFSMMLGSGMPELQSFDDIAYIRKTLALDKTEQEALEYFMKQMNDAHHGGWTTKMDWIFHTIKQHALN
Sequence (P27986 whole entry partner): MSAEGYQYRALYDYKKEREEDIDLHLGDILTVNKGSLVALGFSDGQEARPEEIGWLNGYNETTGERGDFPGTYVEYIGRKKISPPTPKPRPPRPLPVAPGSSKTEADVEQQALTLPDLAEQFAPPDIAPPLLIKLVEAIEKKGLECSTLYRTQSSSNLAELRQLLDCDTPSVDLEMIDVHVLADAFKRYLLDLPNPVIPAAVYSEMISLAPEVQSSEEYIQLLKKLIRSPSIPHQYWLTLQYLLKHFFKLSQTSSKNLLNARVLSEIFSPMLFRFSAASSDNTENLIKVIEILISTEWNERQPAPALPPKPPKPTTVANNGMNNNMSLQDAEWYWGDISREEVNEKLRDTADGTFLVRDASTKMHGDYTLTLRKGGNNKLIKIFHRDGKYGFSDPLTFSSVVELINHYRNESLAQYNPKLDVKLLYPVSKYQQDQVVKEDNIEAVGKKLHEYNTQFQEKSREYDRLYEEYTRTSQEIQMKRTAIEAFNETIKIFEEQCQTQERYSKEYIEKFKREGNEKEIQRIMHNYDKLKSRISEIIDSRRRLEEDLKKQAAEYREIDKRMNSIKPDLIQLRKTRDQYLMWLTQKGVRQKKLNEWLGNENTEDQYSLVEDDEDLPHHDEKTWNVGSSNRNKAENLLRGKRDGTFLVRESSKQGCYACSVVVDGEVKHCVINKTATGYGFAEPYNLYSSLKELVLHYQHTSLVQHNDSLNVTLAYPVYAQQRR
Experiment description: PI3Kα (p110/p85) kinase ADP-Glo Assay
Condition summary: 25 uM ATP
pIC50: −log10 of the molar value.
This section presents compounds with their documented pIC50 values.

{"Compound": "Cc1cc(C(C)Nc2ccccc2C(=O)O)c2cc(-c3cccc(F)c3F)n(C)c(=O)c2c1 (stereo not shown) [Example 12]", "Relation operator": "=", "pIC50": 5.17}
{"Compound": "Cc1cc(C(C)Nc2ccccc2C(=O)O)c2cc(-c3ccccc3C(N)=O)n(C)c(=O)c2c1 (stereo not shown) [Example 90]", "Relation operator": "=", "pIC50": 4.05}
{"Compound": "Cc1cc(C(C)Nc2cnccc2C(=O)O)c2cc(-c3ccc(F)cc3)n(C)c(=O)c2c1 (stereo not shown) [Example 54]", "Relation operator": "<", "pIC50": 4.00}
{"Compound": "Cc1cc(C(C)Nc2ccccc2C(=O)O)c2cc(-c3ccc(F)cc3)n(C3CCOCC3)c(=O)c2c1 (stereo not shown) [Example 96]", "Relation operator": "=", "pIC50": 4.14}
{"Compound": "Cc1cc(C(C)Nc2ccccc2C(=O)O)c2cc(-c3ccc4c(c3)CN(C)C4=O)n(C)c(=O)c2c1 (stereo not shown) [Example 70]", "Relation operator": "=", "pIC50": 4.68}
{"Compound": "COc1cccc(-c2cc3c(C(C)Nc4ccccc4C(=O)O)cc(C)cc3c(=O)n2C)c1 (stereo not shown) [Example 13]", "Relation operator": "=", "pIC50": 5.23}
{"Compound": "Cc1cc(C(C)Nc2ccccc2C(=O)O)c2cc(-c3ccc4c(c3)C3CC3O4)n(C)c(=O)c2c1 (stereo not shown) [Example 53]", "Relation operator": "=", "pIC50": 5.32}
{"Compound": "Cc1cc(C(C)Nc2ccccc2C(=O)O)c2cc(-c3cnn(C)c3)n(C)c(=O)c2c1 (stereo not shown) [Example 91]", "Relation operator": "=", "pIC50": 5.01}
{"Compound": "Cc1cc(C(C)Nc2ccccc2C(=O)O)c2cc(-c3ccc(C(F)(F)F)cc3)n(C)c(=O)c2c1 (stereo not shown) [Example 49]", "Relation operator": "=", "pIC50": 5.02}
{"Compound": "Cc1cc(C(C)Nc2ccccc2C(=O)O)c2cc(-c3ccc(F)cc3F)n(C)c(=O)c2c1 (stereo not shown) [Example 11]", "Relation operator": "=", "pIC50": 4.68}
{"Compound": "Cc1cc(C(C)Nc2ccccc2C(=O)O)c2cc(C#Cc3cnn(C)c3)n(C)c(=O)c2c1 (stereo not shown) [Example 80]", "Relation operator": "=", "pIC50": 5.48}
{"Compound": "Cc1cc([C@@H](C)Nc2ccccc2C(=O)O)c2cc(-c3ccccc3)n(C)c(=O)c2c1 [Example 30]", "Relation operator": "=", "pIC50": 5.60}
{"Compound": "Cc1cc(C(C)Nc2ccccc2C(=O)O)c2cc(-c3cccc(F)c3)n(C)c(=O)c2c1 (stereo not shown) [Example 7]", "Relation operator": "=", "pIC50": 5.60}
{"Compound": "Cc1cc(C(C)Nc2ccccc2C(=O)O)c2cc(-c3ccc(C4(O)CC4)cc3)n(C)c(=O)c2c1 (stereo not shown) [Example 62]", "Relation operator": "=", "pIC50": 5.33}
{"Compound": "Cc1cc([C@@H](C)Nc2ccccc2C(=O)O)c2cc(-c3ccc(F)cc3)n(CC#N)c(=O)c2c1 [Example 64]", "Relation operator": "=", "pIC50": 5.61}
{"Compound": "Cc1cc(C(C)Nc2ccccc2C(=O)O)c2cc(-c3ccc(C(C)(C)O)nc3)n(C)c(=O)c2c1 (stereo not shown) [Example 55]", "Relation operator": "=", "pIC50": 4.58}
